Molecular target: Endothelin receptor type B (Homo sapiens, UniProt P24530)
Sequence (P24530 whole entry): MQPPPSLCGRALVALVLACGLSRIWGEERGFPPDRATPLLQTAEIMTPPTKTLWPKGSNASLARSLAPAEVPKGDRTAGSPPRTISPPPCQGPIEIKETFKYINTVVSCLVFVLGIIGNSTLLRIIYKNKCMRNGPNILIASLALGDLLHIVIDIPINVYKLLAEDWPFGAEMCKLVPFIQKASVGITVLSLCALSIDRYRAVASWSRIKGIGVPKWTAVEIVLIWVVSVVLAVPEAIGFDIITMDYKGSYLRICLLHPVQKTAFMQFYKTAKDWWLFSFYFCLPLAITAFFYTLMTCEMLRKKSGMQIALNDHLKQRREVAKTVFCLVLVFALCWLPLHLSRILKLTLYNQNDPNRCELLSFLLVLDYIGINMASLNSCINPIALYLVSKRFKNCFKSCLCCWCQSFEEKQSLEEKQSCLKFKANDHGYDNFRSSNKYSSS
Readout name: Ki (µM)

{"Smiles": "CCCOc1ccc2c(c1)[C@@H](c1ccc(OC)cc1OCCO)[C@H](C(=O)O)[C@H]2c1ccc2c(c1)OCO2", "Recorded measurement": 0.15}

* * *

What follows is a record of pKi for Endothelin-1 receptor (Homo sapiens).
pKi: −log10 of the molar value.

{"Molecule": "CCCCn1ncc(/C=C(\\Cc2cc3c(cc2OC)OCO3)C(=O)O)c1-c1ccc(OC)cc1OCc1ccccc1C(=O)O [SB-234551]", "pKi": 9.89}
{"Molecule": "CCCOc1ccc2c(c1)[C@@H](c1ccc(OC)cc1OCC(=O)O)[C@H](C(=O)O)[C@H]2c1ccc2c(c1)OCO2", "pKi": 9.40}

Data provenance is BindingDB's records for PubMed 9694916.
